Target: T1, GRIP1_7, Q9Y3R0
T1 sequence (Q9Y3R0 999-1096, limits assumed, looked up): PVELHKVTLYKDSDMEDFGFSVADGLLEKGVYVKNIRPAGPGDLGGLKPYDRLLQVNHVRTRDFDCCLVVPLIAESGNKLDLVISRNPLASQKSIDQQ
Assay: holdup assay
Design: key: below the threshold = too weak to quantify, mostly under pKd 3.1 to 4
Settings: plain residues with an end cap or a label only (N-terminal biotin on a linker: ttds)
measure_name: pKd

// worked examples, pKd included
EVVHTPETSV [SLC16A3, O15427] = 3.79
EMDRRPATVV [PLCB4, Q15147] = below the threshold
SGSRPSATVV [HPV73-E6, Q82005] = 3.83
VDFPPKESSL [ACVR2A, P27037] = 3.47
RLPKIKETTV [FRMPD4, Q14CM0] = below the threshold

Inquiry: # lookup: pKd of FHPLGADSQV [SLC2A1, P11166]
Reply text: 3.55

Inquiry: What pKd value was documented for this binder, SKPTRRETEV [HPV35-E6, P27228] ?
Reply text: below the threshold

Inquiry: # get_value(readout='pKd', item= DKDPHSETAL [TMIGD1, Q6UXZ0] )
Reply text: below the threshold
